Hey, just so you know, these numbers are from patent US20260365739.

target: IGF1R (human, UniProt P08069); assay: SPR
Sequence (P08069 31-932): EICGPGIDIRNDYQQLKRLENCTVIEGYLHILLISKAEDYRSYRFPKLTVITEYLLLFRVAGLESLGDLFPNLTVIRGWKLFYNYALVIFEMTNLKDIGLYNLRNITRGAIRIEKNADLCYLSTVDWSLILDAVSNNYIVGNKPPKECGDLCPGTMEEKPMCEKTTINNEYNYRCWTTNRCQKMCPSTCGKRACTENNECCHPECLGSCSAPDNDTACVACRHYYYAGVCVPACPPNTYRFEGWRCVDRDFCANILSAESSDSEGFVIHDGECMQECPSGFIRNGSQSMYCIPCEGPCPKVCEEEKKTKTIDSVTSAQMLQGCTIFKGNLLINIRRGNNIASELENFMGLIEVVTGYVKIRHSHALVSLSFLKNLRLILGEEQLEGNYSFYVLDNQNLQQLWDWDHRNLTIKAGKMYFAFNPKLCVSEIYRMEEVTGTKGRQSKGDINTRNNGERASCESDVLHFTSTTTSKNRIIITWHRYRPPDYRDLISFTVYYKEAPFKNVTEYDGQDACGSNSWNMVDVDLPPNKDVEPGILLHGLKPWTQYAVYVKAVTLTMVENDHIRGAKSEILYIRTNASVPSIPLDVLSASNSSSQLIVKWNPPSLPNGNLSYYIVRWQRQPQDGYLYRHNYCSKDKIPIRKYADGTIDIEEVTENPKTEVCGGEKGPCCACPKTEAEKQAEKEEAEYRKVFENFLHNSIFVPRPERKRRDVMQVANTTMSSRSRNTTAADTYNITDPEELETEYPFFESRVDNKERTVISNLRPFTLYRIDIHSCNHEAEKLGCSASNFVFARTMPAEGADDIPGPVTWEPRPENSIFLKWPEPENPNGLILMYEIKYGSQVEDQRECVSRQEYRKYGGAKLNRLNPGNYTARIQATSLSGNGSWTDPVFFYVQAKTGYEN
Please respond with reported Kd for every item in the list.
Use nM as the unit, but write only the number.

The binder listed as IGF1R3_24_86 (antibody, V domains shown) VH: QVKLEESGGGLVQAGGSLRLSCCASEYPSNFYAMSWFRQAPGKEREFVAGVSRDGLTTLYADSVKGRFTMSRDNAKNCVDLQMNSVKAEDTAVYYCAIVITGVWNKVDVNSRSYHYWGQGTQVTVSS has a reported Kd of 5.3

Measured Kd of IGF1R4_24_86 (antibody, V domains shown) VH: QVKLEESGGGLVQAGGSLRLSCCVSGGTVSPTAMGWFRQAPGKEREFVGHITWSRGTTRVASSVKDRFTISRDSAKNCVYLQMNSLKSEDTAVYYCAASTFLRILPEESAYTYWGQGTQVTVSS : 1.1

Entry IGF1R4_6_119 (designed binder) QVKLECSGGGLVQAGGSLRLSCEVSGGTVSPTAMGWFRQAPGKEREFVGHITWSRGTTRVASSVKDRFTISRDSAKNTVYLQMNSLKSEDTAVYYCAASTFLRILPEESAYTYWCQGTQVTVSS ; Kd = 0.3
